Reference for the values: paper PMC8658989

System: MCF-7
measurement_protocol: Antiproliferative activity, MTT dye-reduction assay, MCF-7
Assay type: cell-based, human
experimental_setup: SI = IC50 of MCF-10A/IC50 of MCF-7
Non-standard residues stand in square brackets, D forms with d. Residues, ends and D or L forms follow the SMILES beside them. *: point of attachment. Acetyl(1,8-naphthalimido) = O=C1c2cccc3cccc(c23)C(=O)N1CC(=O)*; βAla = NCCC(=O)O
measured_property: SI ± SD MCF-7 (selective index)

[[record]]
compound = "CC(C)C[C@H](NC(=O)[C@H](CCCCN)NC(=O)CN1C(=O)c2cccc3cccc(c23)C1=O)C(=O)N[C@@H](C)C(=O)N[C@@H](CCCCN)C(=O)N[C@@H](CC(C)C)C(=O)N[C@@H](C)C(=O)N[C@@H](CCCCN)C(=O)N[C@@H](CCCCN)C(=O)N[C@@H](CC(C)C)C(=O)N[C@@H](C)C(=O)N[C@@H](CCCCN)C(=O)N[C@@H](CC(C)C)C(=O)N[C@@H](C)C(=O)N[C@@H](CCCCN)C(N)=O [Si9, 1,8-NphtG-(KLAKLAK)2-NH2]"
measured_property = "SI ± SD MCF-7 (selective index)"
recorded_result = 2.19

[[record]]
compound = "CC(C)C[C@H](NC(=O)[C@H](CCCCN)NC(=O)CCNC(=O)[C@H](CC(C)C)NC(=O)[C@H](CCCCN)NC(=O)[C@H](CCCCN)NC(=O)CCNC(=O)[C@H](CC(C)C)NC(=O)[C@H](CCCCN)NC(=O)CCNC(=O)[C@H](CC(C)C)NC(=O)[C@@H](N)CCCCN)C(=O)NCCC(=O)N[C@@H](CCCCN)C(N)=O [Si5, (KLβ-AKLβ-AK)2-NH2] (H-KL[βAla]KL[βAla]KKL[βAla]KL[βAla]K-NH2)"
measured_property = "SI ± SD MCF-7 (selective index)"
recorded_result = 1.028

[[record]]
compound = "CC(C)C[C@H](NC(=O)[C@H](CCCCN)NC(=O)[C@H](C)NC(=O)[C@H](CC(C)C)NC(=O)[C@H](CCCCN)NC(=O)[C@H](CCCCN)NC(=O)[C@H](C)NC(=O)[C@H](CC(C)C)NC(=O)[C@H](CCCCN)NC(=O)[C@H](C)NC(=O)[C@H](CC(C)C)NC(=O)[C@@H](N)CCCCN)C(=O)N[C@@H](C)C(=O)N[C@@H](CCCCN)C(N)=O [Si1, (KLAKLAK)2-NH2]"
measured_property = "SI ± SD MCF-7 (selective index)"
recorded_result = 1.243

[[record]]
compound = "CC(C)C[C@H](NC(=O)[C@H](CCCCN)NC(=O)CCNC(=O)[C@H](CC(C)C)NC(=O)[C@H](CCCCN)NC(=O)CN1C(=O)c2cccc3cccc(c23)C1=O)C(=O)NCCC(=O)N[C@@H](CCCCN)C(=O)N[C@@H](CCCCN)C(=O)N[C@@H](CC(C)C)C(=O)NCCC(=O)N[C@@H](CCCCN)C(=O)N[C@@H](CC(C)C)C(=O)NCCC(=O)N[C@@H](CCCCN)C(N)=O [Si4, 1,8-NphtG-(KLβ-AKLβ-AK)2-NH2] ({Acetyl(1,8-naphthalimido)}-KL[βAla]KL[βAla]KKL[βAla]KL[βAla]K-NH2)"
measured_property = "SI ± SD MCF-7 (selective index)"
recorded_result = 1.51

